Target: Diaphorase
Assay: peptide array, 10 uM labeled diaphorase, with FAD
Field 'label' (enum: fulfilled / not fulfilled). Set to fulfilled when fluorescence is strictly under 30000; else not fulfilled.

# count of solved cases: 6
KEAPGPRFGGSG    fulfilled
EGYANKLLALFSGSG    fulfilled
VLSLNQVYSEGSG    fulfilled
VFGVLSQVARDGSG    not fulfilled
QLLQLLFGGSG    not fulfilled
DLDKAFGGSG    fulfilled

Input SVLEGYQAVFGGSG ; condition: fluorescence strictly below 30000. Does it hold?
fulfilled

Input AQVAVDGFYVDGSG ; condition: fluorescence strictly below 30000. Does it hold?
fulfilled

Input RWRYYWKSEGSG ; condition: fluorescence strictly below 30000. Does it hold?
not fulfilled

Input YRLNLKHPVGGSG ; condition: fluorescence strictly below 30000. Does it hold?
not fulfilled

Input RWYKNGGSG ; condition: fluorescence strictly below 30000. Does it hold?
not fulfilled

Input RAQYAQYLFGGSG ; condition: fluorescence strictly below 30000. Does it hold?
not fulfilled
